Data origin: patent US20240174622A1

Consider the following compounds; for each one, report its Liver.
Test system: LNCaP tumor-transplanted mouse
ASSAY COMMENT: Internal radioactivity distribution using LNCaP tumor-transplanted mouse
Type: in vivo
SETTINGS: 4 h after administration
Entry format: amount then unit.

// solved cases for Liver follow
1. O=C([O-])CN(CCN(CCc1ccc(NC(=O)[C@H](CCCCNC(=O)CCC(=O)NCCCC[C@H](NC(=O)N[C@@H](CCC(=O)O)C(=O)O)C(=O)O)NC(=O)CCCc2ccc(I)cc2)cc1)CCN(CC(=O)[O-])Cc1cccc(C(=O)[O-])n1)Cc1cccc(C(=O)[O-])n1.[111In+3] [[^111In]In-Neunpa-2] | 1.29 ± 0.02 % ID/g
2. O=C(O)CC[C@H](NC(=O)N[C@@H](CCCCNC(=O)[C@H](Cc1ccc2ccccc2c1)NC(=O)[C@H]1CC[C@H](CNC(=O)CCC(C(=O)O)N2CCN(CC(=O)O)CCN(C(CCC(=O)N[C@@H](CCCCNC(=O)CCCc3ccc(I)cc3)C(=O)O)C(=O)O)CCN(CC(=O)O)CC2)CC1)C(=O)O)C(=O)O (some centres unmarked) [[^111In]In-PSMA-NAT-DA1, metal not drawn] | 8.38 ± 2.27 % ID/g
3. O=C([O-])CN(Cc1cccc(C(=O)[O-])n1)C[C@H](Cc1ccc(NC(=O)CCCCCNC(=O)CCC(=O)NCCCC[C@H](NC(=O)N[C@@H](CCC(=O)O)C(=O)O)C(=O)O)cc1)N(CC(=O)[O-])Cc1cccc(C(=O)[O-])n1.[111In+3] [[^111In]In-Octapa-1, reference compound] | 0.13 ± 0.02 % ID/g
4. O=C([O-])CN(CCN(CCc1ccc(NC(=O)CCCCCNC(=O)CCC(=O)NCCCC[C@H](NC(=O)N[C@@H](CCC(=O)O)C(=O)O)C(=O)O)cc1)CCN(CC(=O)[O-])Cc1cccc(C(=O)[O-])n1)Cc1cccc(C(=O)[O-])n1.[111In+3] [[^111In]In-Neunpa-1, reference compound] | 0.69 ± 0.05 % ID/g

Provide only the value of recorded Liver for O=C([O-])CN(Cc1cccc(C(=O)[O-])n1)C[C@H](Cc1ccc(NC(=O)[C@H](CCCCNC(=O)CCC(=O)NCCCC[C@H](NC(=O)N[C@@H](CCC(=O)O)C(=O)O)C(=O)O)NC(=O)CCCc2ccc(I)cc2)cc1)N(CC(=O)[O-])Cc1cccc(C(=O)[O-])n1.[111In+3] [[^111In]In-Octapa-2]
1.67 ± 0.47 % ID/g

====

I'd be grateful if you could share measured Lung for these entries.
Test system: LNCaP tumor-transplanted mouse
ASSAY COMMENT: Internal radioactivity distribution using LNCaP tumor-transplanted mouse
Type: in vivo
SETTINGS: 48 h after administration
Description: The animal test was performed in compliance with the guidelines of Kyoto University Animal Experiment Committee. […] LNCaP or PC-3 tumor-implanted mice were administered saline solutions (185 kBq, 100 μL) of [^111In]In-PSMA-DA1 or [^111In]In-PSMA-DB from the tail vein (n=3 each). […] Thereafter, blood and each organ were recovered, and the mass and radioactivity of the organs were measured. […]
One number for each entry, in % ID/g.

1) O=C([O-])CN1CCN(C(CCC(=O)NCCCC[C@H](NC(=O)N[C@@H](CCC(=O)O)C(=O)O)C(=O)O)C(=O)[O-])CCN(CC(=O)[O-])CCN(C(CCC(=O)N[C@@H](CCCCNC(=O)CCCc2ccc(I)cc2)C(=O)O)C(=O)[O-])CC1.[111In+3] (stereo partly drawn) [[^111In]In-PSMA-DA1] | 4.17
2) O=C([O-])CN(Cc1cccc(C(=O)[O-])n1)C[C@H](Cc1ccc(NC(=O)[C@H](CCCCNC(=O)CCC(=O)NCCCC[C@H](NC(=O)N[C@@H](CCC(=O)O)C(=O)O)C(=O)O)NC(=O)COCCOCCOCC(=O)N[C@@H](CCCCNC(=O)CCCc2ccc(I)cc2)C(=O)O)cc1)N(CC(=O)[O-])Cc1cccc(C(=O)[O-])n1.[111In+3] [[^111In]In-Octapa-3] | 3.18
3) O=C([O-])CN1CCN(C(CCC(=O)NCCCC[C@H](NC(=O)N[C@@H](CCC(=O)O)C(=O)O)C(=O)O)C(=O)[O-])CCN(CC(=O)[O-])CCN(C(CCC(=O)Nc2ccccc2)C(=O)[O-])CC1.[111In+3] (stereo partly drawn) [[^111In]In-PSMA-DB, reference compound] | 0.66

Kindly give each listed record's Lung.
1. O=C([O-])CN(Cc1cccc(C(=O)[O-])n1)C[C@H](Cc1ccc(NC(=O)CCCCCNC(=O)CCC(=O)NCCCC[C@H](NC(=O)N[C@@H](CCC(=O)O)C(=O)O)C(=O)O)cc1)N(CC(=O)[O-])Cc1cccc(C(=O)[O-])n1.[111In+3] [[^111In]In-Octapa-1, reference compound]
2. O=C([O-])CN(CCN(CCc1ccc(NC(=O)[C@H](CCCCNC(=O)CCC(=O)NCCCC[C@H](NC(=O)N[C@@H](CCC(=O)O)C(=O)O)C(=O)O)NC(=O)CCCc2ccc(I)cc2)cc1)CCN(CC(=O)[O-])Cc1cccc(C(=O)[O-])n1)Cc1cccc(C(=O)[O-])n1.[111In+3] [[^111In]In-Neunpa-2]
3. O=C([O-])CN1CCN(C(CCC(=O)NCCC(=O)N2Cc3ccccc3-c3c(nnn3CCOCCOCCOCCOCCC(=O)NCCCC[C@H](NC(=O)N[C@@H](CCC(=O)O)C(=O)O)C(=O)O)-c3ccccc32)C(=O)[O-])CCN(CC(=O)[O-])CCN(C(CCC(=O)N[C@@H](CCCCNC(=O)CCCc2ccc(I)cc2)C(=O)O)C(=O)[O-])CC1.[111In+3] (stereo partly drawn) [[^111In]In-PtDA]
4. O=C([O-])CN(Cc1cccc(C(=O)[O-])n1)C[C@H](Cc1ccc(NC(=O)[C@H](CCCCNC(=O)CCC(=O)NCCCC[C@H](NC(=O)N[C@@H](CCC(=O)O)C(=O)O)C(=O)O)NC(=O)CCCc2ccc(I)cc2)cc1)N(CC(=O)[O-])Cc1cccc(C(=O)[O-])n1.[111In+3] [[^111In]In-Octapa-2]
5. O=C([O-])CN(CCN(CCc1ccc(NC(=O)CCCCCNC(=O)CCC(=O)NCCCC[C@H](NC(=O)N[C@@H](CCC(=O)O)C(=O)O)C(=O)O)cc1)CCN(CC(=O)[O-])Cc1cccc(C(=O)[O-])n1)Cc1cccc(C(=O)[O-])n1.[111In+3] [[^111In]In-Neunpa-1, reference compound]
6. O=C(O)CC[C@H](NC(=O)N[C@@H](CCCCNC(=O)[C@H](Cc1ccc2ccccc2c1)NC(=O)[C@H]1CC[C@H](CNC(=O)CCC(C(=O)O)N2CCN(CC(=O)O)CCN(C(CCC(=O)N[C@@H](CCCCNC(=O)CCCc3ccc(I)cc3)C(=O)O)C(=O)O)CCN(CC(=O)O)CC2)CC1)C(=O)O)C(=O)O (stereo partly drawn) [[^111In]In-PSMA-NAT-DA1, metal not drawn]

0.06
0.40
6.16
0.45
0.32
11.1

====

Assignment: determine reported Intestine for the given compounds.
Tested on: LNCaP tumor-transplanted mouse
ASSAY COMMENT: Internal radioactivity distribution using LNCaP tumor-transplanted mouse
Assay type: in vivo
SETTINGS: 24 h after administration
Answers are plain numbers, in % ID/g.

1) O=C([O-])CN(CCN(CCc1ccc(NC(=O)CCCCCNC(=O)CCC(=O)NCCCC[C@H](NC(=O)N[C@@H](CCC(=O)O)C(=O)O)C(=O)O)cc1)CCN(CC(=O)[O-])Cc1cccc(C(=O)[O-])n1)Cc1cccc(C(=O)[O-])n1.[111In+3] [[^111In]In-Neunpa-1, reference compound] | 0.32

Kindly review the next compound as well.
Entry O=C([O-])CN(Cc1cccc(C(=O)[O-])n1)C[C@H](Cc1ccc(NC(=O)[C@H](CCCCNC(=O)CCC(=O)NCCCC[C@H](NC(=O)N[C@@H](CCC(=O)O)C(=O)O)C(=O)O)NC(=O)COCCOCCOCC(=O)N[C@@H](CCCCNC(=O)CCCc2ccc(I)cc2)C(=O)O)cc1)N(CC(=O)[O-])Cc1cccc(C(=O)[O-])n1.[111In+3] [[^111In]In-Octapa-3] needs its Intestine filled in; supply it.
1.23

====

Tested on: LNCaP tumor-transplanted mouse
ASSAY COMMENT: Internal radioactivity distribution using LNCaP tumor-transplanted mouse
Format: in vivo
SETTINGS: 96 h after administration
Method: The animal test was performed in compliance with the guidelines of Kyoto University Animal Experiment Committee. […] LNCaP or PC-3 tumor-implanted mice were administered saline solutions (185 kBq, 100 μL) of [^111In]In-PSMA-DA1 or [^111In]In-PSMA-DB from the tail vein (n=3 each). […] Thereafter, blood and each organ were recovered, and the mass and radioactivity of the organs were measured. […]
ATTRIBUTE MEASURED: Pancreas (% ID/g)
Give bare numbers, in % ID/g.

Worked examples follow.
1. O=C([O-])CN(CCN(CCc1ccc(NC(=O)CCCCCNC(=O)CCC(=O)NCCCC[C@H](NC(=O)N[C@@H](CCC(=O)O)C(=O)O)C(=O)O)cc1)CCN(CC(=O)[O-])Cc1cccc(C(=O)[O-])n1)Cc1cccc(C(=O)[O-])n1.[111In+3] [[^111In]In-Neunpa-1, reference compound] | 0.32
2. O=C([O-])CN(Cc1cccc(C(=O)[O-])n1)C[C@H](Cc1ccc(NC(=O)CCCCCNC(=O)CCC(=O)NCCCC[C@H](NC(=O)N[C@@H](CCC(=O)O)C(=O)O)C(=O)O)cc1)N(CC(=O)[O-])Cc1cccc(C(=O)[O-])n1.[111In+3] [[^111In]In-Octapa-1, reference compound] | 0.04
3. O=C([O-])CN(CCN(CCc1ccc(NC(=O)[C@H](CCCCNC(=O)CCC(=O)NCCCC[C@H](NC(=O)N[C@@H](CCC(=O)O)C(=O)O)C(=O)O)NC(=O)CCCc2ccc(I)cc2)cc1)CCN(CC(=O)[O-])Cc1cccc(C(=O)[O-])n1)Cc1cccc(C(=O)[O-])n1.[111In+3] [[^111In]In-Neunpa-2] | 0.18
4. O=C([O-])CN1CCN(C(CCC(=O)NCCCC[C@H](NC(=O)N[C@@H](CCC(=O)O)C(=O)O)C(=O)O)C(=O)[O-])CCN(CC(=O)[O-])CCN(C(CCC(=O)Nc2ccccc2)C(=O)[O-])CC1.[111In+3] (some centres unmarked) [[^111In]In-PSMA-DB, reference compound] | 0.85
5. O=C([O-])CN(Cc1cccc(C(=O)[O-])n1)C[C@H](Cc1ccc(NC(=O)[C@H](CCCCNC(=O)CCC(=O)NCCCC[C@H](NC(=O)N[C@@H](CCC(=O)O)C(=O)O)C(=O)O)NC(=O)COCCOCCOCC(=O)N[C@@H](CCCCNC(=O)CCCc2ccc(I)cc2)C(=O)O)cc1)N(CC(=O)[O-])Cc1cccc(C(=O)[O-])n1.[111In+3] [[^111In]In-Octapa-3] | 0.22

Look up Pancreas for the entries below, preserving their order.
1. O=C([O-])CN(Cc1cccc(C(=O)[O-])n1)C[C@H](Cc1ccc(NC(=O)[C@H](CCCCNC(=O)CCC(=O)NCCCC[C@H](NC(=O)N[C@@H](CCC(=O)O)C(=O)O)C(=O)O)NC(=O)CCCc2ccc(I)cc2)cc1)N(CC(=O)[O-])Cc1cccc(C(=O)[O-])n1.[111In+3] [[^111In]In-Octapa-2]
2. O=C([O-])CN1CCN(C(CCC(=O)NCCCC[C@H](NC(=O)N[C@@H](CCC(=O)O)C(=O)O)C(=O)O)C(=O)[O-])CCN(CC(=O)[O-])CCN(C(CCC(=O)N[C@@H](CCCCNC(=O)CCCc2ccc(I)cc2)C(=O)O)C(=O)[O-])CC1.[111In+3] (some centres unmarked) [[^111In]In-PSMA-DA1]
3. O=C(O)CC[C@H](NC(=O)N[C@@H](CCCCNC(=O)[C@H](Cc1ccc2ccccc2c1)NC(=O)[C@H]1CC[C@H](CNC(=O)CCC(C(=O)O)N2CCN(CC(=O)O)CCN(C(CCC(=O)N[C@@H](CCCCNC(=O)CCCc3ccc(I)cc3)C(=O)O)C(=O)O)CCN(CC(=O)O)CC2)CC1)C(=O)O)C(=O)O (some centres unmarked) [[^111In]In-PSMA-NAT-DA1, metal not drawn]

[0.06, 0.64, 2.60]
